The values you see were collected from ChEMBL document CHEMBL5154775.

- targetOrSystem: Cytochrome P450 2C9 (Homo sapiens)
- Sequence (P11712 whole entry): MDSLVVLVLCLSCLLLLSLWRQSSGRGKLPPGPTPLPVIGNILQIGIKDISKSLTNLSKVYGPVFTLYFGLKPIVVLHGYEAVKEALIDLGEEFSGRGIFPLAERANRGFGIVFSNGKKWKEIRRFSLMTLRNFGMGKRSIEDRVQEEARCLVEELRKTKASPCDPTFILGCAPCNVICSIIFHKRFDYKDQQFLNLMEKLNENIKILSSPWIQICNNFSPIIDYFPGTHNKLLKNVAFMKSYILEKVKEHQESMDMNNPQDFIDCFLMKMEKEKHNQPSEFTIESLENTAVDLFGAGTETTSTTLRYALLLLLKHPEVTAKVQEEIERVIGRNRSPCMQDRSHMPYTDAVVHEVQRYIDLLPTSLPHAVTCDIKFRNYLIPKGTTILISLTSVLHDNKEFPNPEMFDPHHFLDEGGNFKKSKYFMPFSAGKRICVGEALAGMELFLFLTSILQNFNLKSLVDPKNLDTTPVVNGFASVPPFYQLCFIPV
pIC50: −log10 of the molar value.
measuredEndpoint: pIC50

# smilesNotation, measuredEndpoint, value
records = [
    ("O=C(Nc1ccc(F)cc1)C1(c2ccc(-c3cnc(C(F)(F)F)cc3CO)cc2)COC1", "pIC50", 5.20),
]

====

Attribute: solubility
- methodNotes: Solubility of compound at pH 2
- Type: physicochemical
- experimentalSetup: buffer

# smilesNotation, valueOperator, solubility [µM]
measured = [
    ("O=C(Nc1ccc(F)cc1)C1(c2ccc(-c3cnc(C(F)(F)F)cc3CO)cc2)CCC1", "<", 2),
    ("Cc1cc(C2CC2)ncc1-c1ccc(C2(C(=O)Nc3ccc(F)cc3)COC2)cc1", "=", 139),
    ("Cc1cc(C(F)(F)F)ncc1-c1ccc(C2(C(=O)Nc3ccc(F)cc3)COC2)cc1", "<", 3),
    ("O=C(Nc1ccc(F)cc1)C1(c2ccc(-c3ccc(C4CC4)nc3)cc2)COC1", "<", 3),
    ("O=C(Nc1ccc(F)cc1)C1(c2ccc(-c3cnc(C(F)(F)F)cc3CO)cc2)CC(F)(F)C1", "=", 16),
    ("O=C(Nc1ccc(F)cc1)C1(c2ccc(-c3cnc(C(F)(F)F)cc3CO)cc2)COC1", "=", 147),
    ("CC(C)(O)c1cc(C(F)(F)F)ncc1-c1ccc(C2(C(=O)Nc3ccc(F)cc3)COC2)cc1", "=", 124),
    ("O=C(Nc1ccc(F)cc1)C1(c2ccc(-n3cnc(C4CC4)cc3=O)cc2)COC1", "=", 140),
    ("O=C(Nc1ccc(F)cc1)C1(c2ccc(-c3nc(C4CC4)no3)cc2)COC1", "=", 40),
]
